B1: APBB1IP (parent)
chain: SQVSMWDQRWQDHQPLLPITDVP

Variants of: B1
Experiment: protein stability index of a GFP-peptide fusion (GPS, HEK-293T) (PSI 1-6); higher = more stable;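 also: lentivirally expressed fusions sorted by FACS into six bins by GFP to DsRed ratio, PSI derived from sequencing read proportions per bin multiplied by bin number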
Conditions: c terminus: native
Record form. Attribute: protein stability index. Fill in for each entry.
Lab note: jot down the number only; don't add units.

Looking up SQVSMWDQRWKDHQPLLPITDVP , I found its protein stability index recorded as 2.87

For reference, reported protein stability index for SQVSMWDQRWQDHQPLLPITDGP stands at 2.42

The reported protein stability index of the variant SQVHMWDQRWQDHQPLLPITDVP was 1.74

protein stability index measured on SQVPMWDQRWQDHQPLLPITDVP = 2.73

Entry SQVSMWDQRWVDHQPLLPITDVP , protein stability index reported as 2.25

What the record says about SQESMWDQRWQDHQPLLPITDVP : protein stability index is 2.9

Entry under test: SQVSMWDDRWQDHQPLLPITDVP . Its protein stability index was 2.35

Lab note: SQVSMWDGRWQDHQPLLPITDVP gave protein stability index of 2.27

Entry under test: SQVSCWDQRWQDHQPLLPITDVP . Its protein stability index was 1.52

Looking up SQVSMWDQRWQDHQPRLPITDVP , I see its protein stability index listed as 2.61

Entry SQVSMWDQRWQDHQPILPITDVP — recorded protein stability index = 2.55

Sure, the documented protein stability index for SQVSMWDQRWQDHQPTLPITDVP is 2.92

Briefly, protein stability index measured for KQVSMWDQRWQDHQPLLPITDVP : 1.76

# protein stability index (variant: SQVSMKDQRWQDHQPLLPITDVP ) is 3.24

protein stability index reading for SQVSMWDQRYQDHQPLLPITDVP : 2.55

Quick note, protein stability index for SQVSMWDQRWIDHQPLLPITDVP landed at 3.03

Input SQVSMWDQRWQDHQPLLPITWVP . Output protein stability index: 1.63
